System: T1, recombinant human MCP-4 (human, UniProt Q99616 24-98, limits assumed)
T1 construct: also called rhMCP-4
T1 sequence (Q99616 24-98 limits assumed): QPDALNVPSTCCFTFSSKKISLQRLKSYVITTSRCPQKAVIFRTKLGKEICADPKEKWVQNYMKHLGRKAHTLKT
Protocol notes: ELISA, coated antigen
Quantity kind: ELISA OD

Example entries and their recorded answers appear below.
anti-MCP-1 mAb 1.11.1 (antibody, V domains shown) VH: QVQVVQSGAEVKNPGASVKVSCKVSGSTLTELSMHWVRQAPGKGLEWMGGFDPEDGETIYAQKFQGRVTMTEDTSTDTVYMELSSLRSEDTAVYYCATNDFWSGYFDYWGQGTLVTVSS VL: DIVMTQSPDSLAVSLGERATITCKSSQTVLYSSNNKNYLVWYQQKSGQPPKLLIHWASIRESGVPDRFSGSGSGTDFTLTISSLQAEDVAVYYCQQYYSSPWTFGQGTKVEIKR :: 0.043 OD450
anti-MCP-1 mAb 1.4.1 (antibody, V domains shown) VH: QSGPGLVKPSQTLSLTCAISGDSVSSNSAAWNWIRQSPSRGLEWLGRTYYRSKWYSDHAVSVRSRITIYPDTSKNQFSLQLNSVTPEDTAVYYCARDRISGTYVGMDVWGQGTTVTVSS VL: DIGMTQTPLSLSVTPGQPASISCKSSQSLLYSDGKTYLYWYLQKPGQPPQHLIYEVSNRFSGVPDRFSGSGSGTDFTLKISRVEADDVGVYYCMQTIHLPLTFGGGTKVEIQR :: 0.045 OD450

Query: For the binder anti-MCP-1 mAb 3.16.1 (antibody, V domains shown) VH: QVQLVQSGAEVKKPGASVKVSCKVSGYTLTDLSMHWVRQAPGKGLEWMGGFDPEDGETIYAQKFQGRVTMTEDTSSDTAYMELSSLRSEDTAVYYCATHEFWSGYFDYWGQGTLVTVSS VL: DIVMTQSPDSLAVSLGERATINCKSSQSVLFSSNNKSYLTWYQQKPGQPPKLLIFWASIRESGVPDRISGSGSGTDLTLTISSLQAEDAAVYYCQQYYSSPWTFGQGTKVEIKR , give its measured ELISA OD value.
Reply: 0.043 OD450
